Can you tell me growth for the items I'm about to list?
Test system: NCI/ADR-RES ovarian
TEST_SUMMARY: NCI-60 one-dose screen, 48 h (100 = growth as untreated, 0 = no growth, -100 = all killed)
SETUP_CONDITIONS: 10 µM unless noted
This is part of a sample that, as a whole, favours compounds with a hit. Of some 83,000 tested, about 20% had one in any assay.
Note: unit % is implicit; provide only the numeric part.

For `S=C(Nc1ccccc1)Nc1ccc(OCc2nc3ccc(Cl)cc3[nH]2)cc1` the compound record lists growth as 83.7

For `COc1cc(/C=C/C(=O)c2cnn(-c3cc(=O)[nH]c4ccc(C)cc34)c2C)cc(OC)c1OC` the compound record lists growth as -11.1

For `Nc1cc(-c2c[nH]c3ccc(Cl)cc23)nc2cc(-c3c[nH]c4ccccc34)nn12` the compound record lists growth as -3.2

For `COc1ccc2[nH]c(O)c(N=Nc3nc(-c4ccc(C#N)cc4)cs3)c2c1` the compound record lists growth as 63.1

For CCN1C(=O)N(CC)C2NNC(Sc3c(C(=O)O)c4ccccc4n(CC(C)C)c3=O)=NC21 (stereo unspecified) the compound record lists growth as -27.6

For `CC(=O)c1ccc2c(N)c(C(=O)Nc3ccc(C(F)(F)F)cc3)sc2n1` the compound record lists growth as 34.8

For `CCCCNC(=S)Nc1ccc(OCc2nc3ccc(Cl)cc3[nH]2)cc1` the compound record lists growth as 21.6

For `COc1ccc2[nH]c(=O)c(CSc3ccccc3Nc3nccc(-c4ccc(Cl)cc4)n3)cc2c1` the compound record lists growth as 34.4

For CCOC(=O)/C(F)=C/C1CC1CCc1ccc(OCC)cc1 (stereo unspecified) the compound record lists growth as 101

For `O=C1/C(=C/c2cnc(-c3ccccc3)s2)SC(=S)N1Cc1ccc2c(c1)OCO2` the compound record lists growth as 77.2

For `O=C(N=Nc1c(O)[nH]c2ccc(Br)cc12)c1ccc2nc(-c3ccc(Cl)cc3)[nH]c2c1` the compound record lists growth as 92.4

###

Tested on: HCT-116 colon
TEST_SUMMARY: NCI-60 one-dose screen, 48 h (100 = growth as untreated, 0 = no growth, -100 = all killed)
SETUP_CONDITIONS: 10 µM unless noted
This is part of a sample that, as a whole, favours compounds with a hit. Of some 83,000 tested, about 20% had one in any assay.
Field 'label' (enum: true / false). Set to true when growth is strictly under 70%; else false.

Q: Answer whether the compound `Nc1cc2ccccc2c(=O)n1NC(=O)c1ccc(Br)cc1` has growth strictly less than 70%
Result: false

Q: Answer whether the compound `COc1ccc(Nc2ncnc3sc4c(c23)CCN(Cc2ccccc2)C4)cc1` has growth strictly less than 70%
Result: false

Q: Answer whether the compound `CC[C@]12C=CCN3CC[C@]4(C(=C(C(=O)OC)C1)Nc1cc(OC)c([C@@H]5[C@H]6O[C@H]6[C@@]6(CC)CC(C(=O)OC)=C7Nc8cc(OC)ccc8[C@@]78CCN5[C@@H]68)cc14)[C@@H]32` has growth strictly less than 70%
Result: true

Q: Answer whether the compound CC1CCc2c(sc3nc(SCC(=O)c4cccc([N+](=O)[O-])c4)n(-c4ccccc4)c(=O)c23)C1 (stereo not drawn) has growth strictly less than 70%
Result: true

Q: Answer whether the compound `CCCCC[C@@H]1C/C=C(\C)[C@@H](O)C(C)(C)C(=O)[C@@H](C)/C=C(\C)[C@@H]2C[C@H](O)C[C@](O)(CC(=O)O1)O2` has growth strictly less than 70%
Result: true

Q: Answer whether the compound `CCCCCCCCc1ccc(C(=O)Nc2ccc(C)cc2C(=O)O)cc1` has growth strictly less than 70%
Result: false

Q: Answer whether the compound `COc1cccc2nc(Nc3cccc(NC(=O)c4ccc(CN5CCN(C)CC5)c(C(F)(F)F)c4)c3)ccc12` has growth strictly less than 70%
Result: true

Q: Answer whether the compound `COc1cc2cc(C(=O)N3C[C@@H](CCl)c4c3cc(OC(=O)N(CCC(=O)N3CCN(C)CC3)[C@H]3CCSSC3)c3ccccc43)[nH]c2c(OC)c1OC` has growth strictly less than 70%
Result: true

Q: Answer whether the compound `CS(=O)(=O)Nc1cc(-c2ccc3ncnc(N4CCc5cc(F)c(Cl)cc54)c3c2)cnc1Cl` has growth strictly less than 70%
Result: true

Q: Answer whether the compound `O=C1Nc2ccccc2/C1=C/C(=O)c1cc2ccccc2oc1=O` has growth strictly less than 70%
Result: true

Q: Answer whether the compound `O=[N+]([O-])c1cccc(-c2nnc3c(/C=C/c4ccc(F)cc4)nc4ccccc4n23)c1` has growth strictly less than 70%
Result: false

Q: Answer whether the compound `COc1c(B(O)O)cccc1-c1nc2ccc3cn[nH]c3c2c2c1CCCC2` has growth strictly less than 70%
Result: true

Q: Answer whether the compound `COc1ccc(NC(=O)Cn2c(/C=C/c3ccc([N+](=O)[O-])cc3)nc3ccccc3c2=O)cc1` has growth strictly less than 70%
Result: true

Q: Answer whether the compound Cc1ccc(C(C(=O)NC2CCCCC2)N(Cc2ccccc2Cl)C(=O)c2ccc(CN3CCOCC3)o2)o1 (stereo not drawn) has growth strictly less than 70%
Result: false

Q: Answer whether the compound `COc1ccc2[nH]c(O)c(N=Nc3nc(-c4ccc(Cl)cc4)cs3)c2c1` has growth strictly less than 70%
Result: true

Q: Answer whether the compound `O=C(N/N=C/c1c[nH]c2ccccc12)Nc1ccc(F)c(Cl)c1` has growth strictly less than 70%
Result: true

Q: Answer whether the compound `O=C(N/N=C/c1ccc(Br)o1)c1[nH]c2ccc(Br)cc2c1-c1ccccc1` has growth strictly less than 70%
Result: true
